# study target: Flt3(h) (Homo sapiens, UniProt P36888)
# Sequence (P36888 27-993): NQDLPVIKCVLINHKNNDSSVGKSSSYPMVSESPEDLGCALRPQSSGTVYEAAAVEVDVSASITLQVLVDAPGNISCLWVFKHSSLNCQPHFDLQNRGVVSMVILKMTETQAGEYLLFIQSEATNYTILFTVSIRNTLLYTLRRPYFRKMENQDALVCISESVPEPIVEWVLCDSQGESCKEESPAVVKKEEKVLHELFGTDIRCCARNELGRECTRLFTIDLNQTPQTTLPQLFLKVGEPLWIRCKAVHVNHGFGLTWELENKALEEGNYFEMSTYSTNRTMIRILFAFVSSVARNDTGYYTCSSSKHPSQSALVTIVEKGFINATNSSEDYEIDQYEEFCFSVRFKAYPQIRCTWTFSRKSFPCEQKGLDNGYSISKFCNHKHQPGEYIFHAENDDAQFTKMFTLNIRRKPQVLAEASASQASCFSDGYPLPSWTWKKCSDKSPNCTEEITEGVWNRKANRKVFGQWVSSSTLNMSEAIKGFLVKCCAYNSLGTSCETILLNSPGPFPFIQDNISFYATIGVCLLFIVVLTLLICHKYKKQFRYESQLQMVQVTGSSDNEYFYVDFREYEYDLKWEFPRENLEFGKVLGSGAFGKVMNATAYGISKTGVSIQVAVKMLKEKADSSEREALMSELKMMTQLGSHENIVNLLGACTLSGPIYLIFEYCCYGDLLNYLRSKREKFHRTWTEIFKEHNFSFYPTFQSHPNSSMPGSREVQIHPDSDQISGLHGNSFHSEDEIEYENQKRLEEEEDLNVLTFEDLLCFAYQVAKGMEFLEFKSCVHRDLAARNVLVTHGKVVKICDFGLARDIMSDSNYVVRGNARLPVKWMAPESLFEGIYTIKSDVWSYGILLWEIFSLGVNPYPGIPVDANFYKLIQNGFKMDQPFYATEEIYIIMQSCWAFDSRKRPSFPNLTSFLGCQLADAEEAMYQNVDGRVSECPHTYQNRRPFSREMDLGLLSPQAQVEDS
# protocol summary: KinaseProfiler kinase assay
# Format: biochemical
measure: inhibition at 1 µM

Lookup: GET /values?readout=inhibition at 1 µM&system=Flt3(h) (Homo sapiens, UniProt P36888)&item= C/C=C/c1cc(Nc2cc(N3CCN(CCF)CC3)nc(Oc3ccc4[nH]c(C)cc4c3F)n2)n[nH]1
Found: 100%

Lookup: GET /values?readout=inhibition at 1 µM&system=Flt3(h) (Homo sapiens, UniProt P36888)&item= Cc1cc(Nc2cc(N3CCN(CCO)CC3)nc(Oc3cc(F)c4[nH]c(C)cc4c3F)n2)n[nH]1
Found: 99%

Lookup: GET /values?readout=inhibition at 1 µM&system=Flt3(h) (Homo sapiens, UniProt P36888)&item= Cc1cc2c(F)c(Oc3nc(Nc4cc(C5CC5)[nH]n4)cc(N4CCNCC4)n3)ccc2[nH]1
Found: 100%

Lookup: GET /values?readout=inhibition at 1 µM&system=Flt3(h) (Homo sapiens, UniProt P36888)&item= Cc1cc2c(F)c(Oc3nc(Nc4cc(C5CC5)[nH]n4)cc(N4CCN(S(C)(=O)=O)CC4)n3)ccc2[nH]1
Found: 100%

Lookup: GET /values?readout=inhibition at 1 µM&system=Flt3(h) (Homo sapiens, UniProt P36888)&item= COC1CCN(c2cc(Nc3cc(C4CC4)[nH]n3)nc(Oc3ccc4[nH]c(C)cc4c3F)n2)C1 (stereo not shown)
Found: 98%

Lookup: GET /values?readout=inhibition at 1 µM&system=Flt3(h) (Homo sapiens, UniProt P36888)&item= Cc1cc2c(F)c(Oc3nc(Nc4cc(C5CC5)[nH]n4)cc(N4C[C@@H](C)N[C@@H](C)C4)n3)ccc2[nH]1
Found: 100%

Lookup: GET /values?readout=inhibition at 1 µM&system=Flt3(h) (Homo sapiens, UniProt P36888)&item= C/C=C/c1cc(Nc2cc(N3CCC(OC)C3)nc(Oc3cc(F)c4[nH]c(C)cc4c3F)n2)n[nH]1 (stereo not shown)
Found: 100%

====

# study target: Flt3(h) (Homo sapiens, UniProt P36888)
# protocol summary: KinaseProfiler kinase assay
# Format: biochemical
measure: inhibition at 1 µM (%)
Use % as the unit, but write only the number.

Lookup: Bench note: what inhibition at 1 µM did C/C=C/c1cc(Nc2cc(N3CCN(S(C)(=O)=O)CC3)nc(Oc3ccc4[nH]c(C)cc4c3F)n2)n[nH]1 show?
Found: 99

Lookup: Bench note: what inhibition at 1 µM did C/C=C/c1cc(Nc2cc(N3CCN(CCOC)CC3)nc(Oc3ccc4[nH]c(C)cc4c3F)n2)n[nH]1 show?
Found: 99

Lookup: Bench note: what inhibition at 1 µM did CCC1CN(c2cc(Nc3cc(C4CC4)[nH]n3)nc(Oc3ccc4[nH]c(C)cc4c3F)n2)CCN1 (stereo not shown) show?
Found: 99

Lookup: Bench note: what inhibition at 1 µM did C/C=C/c1cc(Nc2cc(N3CCNCC3)nc(Oc3ccc4[nH]c(C)cc4c3F)n2)n[nH]1 show?
Found: 100

Lookup: Bench note: what inhibition at 1 µM did COCC1CCN(c2cc(Nc3cc(C4CC4)[nH]n3)nc(Oc3ccc4[nH]c(C)cc4c3F)n2)C1 (stereo not shown) show?
Found: 100

Lookup: Bench note: what inhibition at 1 µM did Cc1cc2c(F)c(Oc3nc(Nc4cc(C5CC5)[nH]n4)cc(N4CCN(CCN(C)C)CC4)n3)ccc2[nH]1 show?
Found: 100

Lookup: Bench note: what inhibition at 1 µM did C/C=C/c1cc(Nc2cc(N3CCN(C)CC3)nc(Oc3cc(F)c4[nH]c(C)cc4c3F)n2)n[nH]1 show?
Found: 100

====

# study target: Ret(h) (Homo sapiens)
# protocol summary: KinaseProfiler kinase assay
# Format: biochemical
measure: inhibition at 1 µM (%)
Use % as the unit, but write only the number.

Lookup: Bench note: what inhibition at 1 µM did Cc1cc2c(F)c(Oc3nc(Nc4cc(C5CC5)[nH]n4)cc(N4CCN(CCN(C)C)CC4)n3)ccc2[nH]1 show?
Found: 102

Lookup: Bench note: what inhibition at 1 µM did Cc1cc2c(F)c(Oc3nc(Nc4cc(C5CC5)[nH]n4)cc(N4C[C@@H](C)N[C@@H](C)C4)n3)ccc2[nH]1 show?
Found: 100

Lookup: Bench note: what inhibition at 1 µM did Cc1cc2c(F)c(Oc3nc(Nc4cc(C5CC5)[nH]n4)cc(N4CCN(S(C)(=O)=O)CC4)n3)ccc2[nH]1 show?
Found: 100

Lookup: Bench note: what inhibition at 1 µM did C/C=C/c1cc(Nc2cc(N3CCN(C(C)=O)CC3)nc(Oc3ccc4[nH]c(C)cc4c3F)n2)n[nH]1 show?
Found: 101

Lookup: Bench note: what inhibition at 1 µM did Cc1cc2c(F)c(Oc3nc(Nc4cc(C5CC5)[nH]n4)cc(N4CCNCC4)n3)cc(F)c2[nH]1 show?
Found: 100

Lookup: Bench note: what inhibition at 1 µM did C/C=C/c1cc(Nc2cc(N3CCS(=O)(=O)CC3)nc(Oc3ccc4[nH]c(C)cc4c3F)n2)n[nH]1 show?
Found: 102

Lookup: Bench note: what inhibition at 1 µM did C/C=C/c1cc(Nc2cc(N3CCOCC3)nc(Oc3ccc4c(cc(C)n4C)c3F)n2)n[nH]1 show?
Found: 102

====

Please provide measured inhibition at 1 µM for the entries that follow.
# study target: Flt3(h) (Homo sapiens, UniProt P36888)
# protocol summary: KinaseProfiler kinase assay
# Type: biochemical
Use % as the unit, but write only the number.

Lookup: GET /values?readout=inhibition at 1 µM&system=Flt3(h) (Homo sapiens, UniProt P36888)&item= Cc1cc2c(F)c(Oc3nc(Nc4cc(C5CC5)[nH]n4)cc(N4CCC(O)CC4)n3)ccc2[nH]1 [Compound 21]
Found: 101

Lookup: GET /values?readout=inhibition at 1 µM&system=Flt3(h) (Homo sapiens, UniProt P36888)&item= Cc1cc2c(F)c(Oc3nc(Nc4cc(C5CC5)[nH]n4)cc(N4CCNC(=O)C4)n3)ccc2[nH]1 [Compound 19]
Found: 99

Lookup: GET /values?readout=inhibition at 1 µM&system=Flt3(h) (Homo sapiens, UniProt P36888)&item= Cc1cc2c(F)c(Oc3nc(Nc4cc(C5CC5)[nH]n4)cc(N4CCN(c5ccccn5)CC4)n3)ccc2[nH]1 [Compound 25]
Found: 100

Lookup: GET /values?readout=inhibition at 1 µM&system=Flt3(h) (Homo sapiens, UniProt P36888)&item= Cc1cc2c(F)c(Oc3nc(Nc4cc(C5CC5)[nH]n4)cc(N4CCOC(CN)C4)n3)ccc2[nH]1 (stereo not shown) [Compound 39]
Found: 98

Lookup: GET /values?readout=inhibition at 1 µM&system=Flt3(h) (Homo sapiens, UniProt P36888)&item= C/C=C/c1cc(Nc2cc(N3CCN(CCO)CC3)nc(Oc3cc(F)c4[nH]c(C)cc4c3F)n2)n[nH]1 [Compound 88]
Found: 100

Lookup: GET /values?readout=inhibition at 1 µM&system=Flt3(h) (Homo sapiens, UniProt P36888)&item= Cc1cc2c(F)c(Oc3nc(Nc4cc(C5CC5)[nH]n4)cc(N4CCN(CCF)CC4)n3)ccc2[nH]1 [Compound 45]
Found: 101

Lookup: GET /values?readout=inhibition at 1 µM&system=Flt3(h) (Homo sapiens, UniProt P36888)&item= C/C=C/c1cc(Nc2cc(N3CCN(C(C)=O)CC3)nc(Oc3ccc4[nH]c(C)cc4c3F)n2)n[nH]1 [Compound 56]
Found: 99

====

# study target: Ret(h) (Homo sapiens, UniProt P07949)
# Sequence (P07949 29-1114): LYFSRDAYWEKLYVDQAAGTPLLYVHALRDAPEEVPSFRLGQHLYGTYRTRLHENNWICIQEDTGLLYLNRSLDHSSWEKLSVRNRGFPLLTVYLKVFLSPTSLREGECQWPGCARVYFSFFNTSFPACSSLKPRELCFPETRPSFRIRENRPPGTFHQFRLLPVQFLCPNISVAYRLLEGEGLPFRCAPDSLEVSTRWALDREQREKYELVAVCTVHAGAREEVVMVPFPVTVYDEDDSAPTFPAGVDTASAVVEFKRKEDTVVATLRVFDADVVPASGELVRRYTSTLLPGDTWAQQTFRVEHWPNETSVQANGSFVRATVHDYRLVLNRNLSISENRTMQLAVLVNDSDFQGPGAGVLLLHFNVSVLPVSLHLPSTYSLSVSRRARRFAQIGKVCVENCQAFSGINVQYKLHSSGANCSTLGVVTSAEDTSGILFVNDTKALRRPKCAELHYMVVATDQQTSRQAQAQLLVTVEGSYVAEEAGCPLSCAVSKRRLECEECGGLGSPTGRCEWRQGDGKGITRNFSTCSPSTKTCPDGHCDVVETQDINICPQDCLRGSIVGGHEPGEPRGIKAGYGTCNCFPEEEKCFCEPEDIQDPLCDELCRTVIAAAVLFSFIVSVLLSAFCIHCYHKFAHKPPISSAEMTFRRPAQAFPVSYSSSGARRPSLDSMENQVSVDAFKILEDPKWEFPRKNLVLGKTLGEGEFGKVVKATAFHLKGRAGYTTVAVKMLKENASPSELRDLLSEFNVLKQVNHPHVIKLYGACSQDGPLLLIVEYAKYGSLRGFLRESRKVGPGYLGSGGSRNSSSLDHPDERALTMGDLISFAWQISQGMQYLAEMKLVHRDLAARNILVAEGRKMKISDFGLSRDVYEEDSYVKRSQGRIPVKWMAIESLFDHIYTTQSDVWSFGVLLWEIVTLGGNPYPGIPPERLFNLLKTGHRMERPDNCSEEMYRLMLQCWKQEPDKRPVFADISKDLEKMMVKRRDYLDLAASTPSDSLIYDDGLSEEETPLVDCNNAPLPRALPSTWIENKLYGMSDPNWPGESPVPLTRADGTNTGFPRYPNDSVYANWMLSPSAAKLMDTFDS
# protocol summary: KinaseProfiler kinase assay
# Type: biochemical
Please provide measured inhibition at 1 µM for the entries that follow.
Please answer using a numeric value trailed by its unit.

Lookup: Bench note: what inhibition at 1 µM did C/C=C/c1cc(Nc2cc(N3CCN(C)CC3)nc(Oc3cc(F)c4[nH]c(C)cc4c3F)n2)n[nH]1 show?
Found: 83%

Lookup: Bench note: what inhibition at 1 µM did Cc1cc(Nc2cc(N3CCOCC3)nc(Oc3cc(F)c4[nH]c(C)cc4c3F)n2)n[nH]1 show?
Found: 99%

Lookup: Bench note: what inhibition at 1 µM did COCCN1CCN(c2cc(Nc3cc(C4CC4)[nH]n3)nc(Oc3ccc4[nH]c(C)cc4c3F)n2)CC1 show?
Found: 101%

Lookup: Bench note: what inhibition at 1 µM did C/C=C/c1cc(Nc2cc(N3CCC(O)CC3)nc(Oc3cc(F)c4[nH]c(C)cc4c3F)n2)n[nH]1 show?
Found: 101%

Lookup: Bench note: what inhibition at 1 µM did Cc1cc2c(F)c(Oc3nc(Nc4cc(C5CC5)[nH]n4)cc(N4CCN(C)CC4)n3)cc(F)c2[nH]1 show?
Found: 99%

Lookup: Bench note: what inhibition at 1 µM did Cc1cc2c(F)c(Oc3nc(Nc4cc(C5CC5)[nH]n4)cc(N4CCNC(CO)C4)n3)ccc2[nH]1 (stereo not shown) show?
Found: 102%

Lookup: Bench note: what inhibition at 1 µM did CC(=O)N1CCN(c2cc(Nc3cc(C4CC4)[nH]n3)nc(Oc3ccc4[nH]c(C)cc4c3F)n2)CC1 show?
Found: 97%
